Test system: RARa homodimer (NR concentration 270 nM)
Assay: PBM binding z-score (relative to random genomic background probes); higher = stronger binding; sequences stand for … in GC…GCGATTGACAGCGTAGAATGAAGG
QUANTITY MEASURED: PBM binding z-score
In your answer, state the number alone without any accompanying words.

stdin: // fetch PBM binding z-score given entry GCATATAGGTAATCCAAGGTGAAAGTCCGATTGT
stdout: 0.647

stdin: // fetch PBM binding z-score given entry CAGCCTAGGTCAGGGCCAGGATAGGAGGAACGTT
stdout: -0.655

stdin: // fetch PBM binding z-score given entry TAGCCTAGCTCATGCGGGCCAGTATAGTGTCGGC
stdout: -0.996

stdin: // fetch PBM binding z-score given entry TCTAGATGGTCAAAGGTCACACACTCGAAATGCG
stdout: 3.63

stdin: // fetch PBM binding z-score given entry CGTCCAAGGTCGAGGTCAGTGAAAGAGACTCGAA
stdout: -0.0434

stdin: // fetch PBM binding z-score given entry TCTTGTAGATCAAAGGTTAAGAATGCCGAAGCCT
stdout: 0.414

stdin: // fetch PBM binding z-score given entry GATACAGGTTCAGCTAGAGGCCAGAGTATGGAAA
stdout: 0.321

stdin: // fetch PBM binding z-score given entry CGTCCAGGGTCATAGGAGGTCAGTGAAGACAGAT
stdout: 2.39

###

Tested on: LXRa:RXRa (NR concentration 270 nM, RXRa partner concentration 90 nM)
Test: PBM binding z-score (relative to random genomic background probes); higher = stronger binding; sequences stand for … in GC…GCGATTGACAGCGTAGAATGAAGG
QUANTITY MEASURED: PBM binding z-score

Worked cases, PBM binding z-score given:
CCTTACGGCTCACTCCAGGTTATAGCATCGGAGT = 0.942
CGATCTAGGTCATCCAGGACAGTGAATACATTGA = 2.5
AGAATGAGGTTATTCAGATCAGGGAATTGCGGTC = 1.98
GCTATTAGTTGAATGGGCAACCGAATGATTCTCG = -0.309
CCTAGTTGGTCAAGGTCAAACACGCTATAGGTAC = 4.62
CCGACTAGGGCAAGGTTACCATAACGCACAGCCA = 0.666
TAGCCTAGGTCAGATTGGGCCAGTATACGCTATA = 1.25
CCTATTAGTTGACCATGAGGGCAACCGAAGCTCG = 0.684

stdin: // fetch PBM binding z-score given entry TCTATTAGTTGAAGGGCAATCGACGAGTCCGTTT
stdout: 0.889

stdin: // fetch PBM binding z-score given entry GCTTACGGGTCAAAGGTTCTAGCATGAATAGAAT
stdout: 4.09

stdin: // fetch PBM binding z-score given entry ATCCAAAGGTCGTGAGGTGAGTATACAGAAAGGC
stdout: 4.82

stdin: // fetch PBM binding z-score given entry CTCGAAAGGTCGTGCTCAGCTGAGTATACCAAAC
stdout: 3.96

stdin: // fetch PBM binding z-score given entry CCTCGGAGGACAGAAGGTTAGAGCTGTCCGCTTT
stdout: 0.0136

stdin: // fetch PBM binding z-score given entry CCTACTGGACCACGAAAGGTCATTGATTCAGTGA
stdout: 5

stdin: // fetch PBM binding z-score given entry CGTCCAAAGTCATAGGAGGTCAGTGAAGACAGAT
stdout: 4.11

stdin: // fetch PBM binding z-score given entry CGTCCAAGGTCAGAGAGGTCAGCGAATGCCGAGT
stdout: 5.44

stdin: // fetch PBM binding z-score given entry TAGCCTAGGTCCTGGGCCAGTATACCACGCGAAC
stdout: -1.08

stdin: // fetch PBM binding z-score given entry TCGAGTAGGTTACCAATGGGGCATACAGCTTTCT
stdout: 1.55

stdin: // fetch PBM binding z-score given entry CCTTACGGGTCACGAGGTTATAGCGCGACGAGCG
stdout: 4.91
